- Measured On: His6-JNK1α1 (UniProt P45983-2 1-384)
- Protocol Summary: fluorescence polarisation
TMR = 6-carboxytetramethylrhodamine
Quantity Name: Kd (nM)

binder="{TMR}-RPKRPTTLNLF-OH [TMR-JIPtide]" result=680
